Every entry's value here was drawn from patent US20140348834A1.

// reported koff per item
target desc: cyno IL-17A (cynomolgus monkey, UniProt A0A2K5TTB0 24-155)
Sequence (A0A2K5TTB0 entry or part of it): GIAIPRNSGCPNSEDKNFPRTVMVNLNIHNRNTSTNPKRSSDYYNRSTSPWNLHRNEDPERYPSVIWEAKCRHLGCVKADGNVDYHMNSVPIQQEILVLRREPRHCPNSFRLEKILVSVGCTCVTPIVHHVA
assay summary: SPR Biacore, captured binder

[[record]]
binder = "IL17-G9-M2 (antibody, V domains shown, converted into IgG) VH: EVQLLESGGGVVQPGRSLRLSCAASGFIFSNYGMHWVRQAPGKGLEWVAVISYDGSNKYYADSVKGRFTISRDNSKNTLYLEMNSLRPEDTAVYYCAKVGASGDYYYSYGLDVWGQGTTVTVSS VL: QSVLTQPPSASGTPGQTVSISCSGHNSNIGYHYVHWYQQVPGAAPKLLIYGDGWRPSGVPDRFSGSQSGTSASLAISGLQSEDEADYYCGTWDDWLGGYVFGTGTKVTVLG"
measurement_label = "koff"
recorded_measurement = "< 1e-06 s⁻¹"

[[record]]
binder = "IL17-G9-1 (antibody, V domains shown) VH: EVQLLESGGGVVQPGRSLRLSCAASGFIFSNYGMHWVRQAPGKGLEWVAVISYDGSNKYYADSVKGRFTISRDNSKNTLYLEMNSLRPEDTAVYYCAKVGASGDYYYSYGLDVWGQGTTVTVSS VL: QSVLTQPPSASGTPGQTVSISCSGSHSNIGRHPVDWYQQVPGAAPKLLMYYGGYRPSGVPDRFSGSQSGTSASLAISGLQSEDEADYYCATWDDRLVGYVFGSGTKVTVLG"
measurement_label = "koff"
recorded_measurement = "1e-06 s⁻¹"

[[record]]
binder = "IL17-G9-M1 (antibody, V domains shown) VH: EVQLLESGGGVVQPGRSLRLSCAASGFIFSNYGMHWVRQAPGKGLEWVAVISYDGGYKYYADSVKGRFTISRDNSKNTLYLEMNSLRPEDTAVYYCAKLSLSGDYYYSYGFDGWGQGTTVTVSS VL: QSVLTQPPSASGTPGQTVSISCSGSKSNIGSHYVHWYQQVPGAAPKLLMYDFGQRPSGVPDRFSGSQSGTSASLAISGLQSEDEADYYCGTWDDWLGGYVFGTGTKVTVLG"
measurement_label = "koff"
recorded_measurement = "1e-06 s⁻¹"

[[record]]
binder = "IL17-TN-K7-B6 (antibody, V domains shown, Fully human antibody) VH: EVQLVQSGAEVKKPGESLKISCKASGGSFRSYGISWVRQAPGQGLEWMGGITPILGTANYAQKFQGRVTITADESTTTAYMELSGLTSDDTAVYYCAREPNDFWNGYYTTHHFDYWGQGTPVTVSS VL: DVVMTQSPDFQSVTPKEKVTITCRASQNIGSALHWYQQKPDQSPKLLIKYASQSISGVPSRFSGSGSGTDFTLTINGLEAEDAGTYYCHQSTSLPHTFGQGTKLDIKR"
measurement_label = "koff"
recorded_measurement = "2.51e-05 s⁻¹"

[[record]]
binder = "IL17-G9-2 (antibody, V domains shown) VH: EVQLLESGGGVVQPGRSLRLSCAASGFIFRNYGMHWVRQAPGKGLEWVAVISYDGSNKYYADSVKGRFTISRDNSKNTLYLEMNSLRPEDTAVYYCAKVGASGDYYYSYGLDVWGQGTTVTVSS VL: QSVLTQPPSASGTPGQTVSISCSGSNSNIGRHPVDWYQQVPGAAPKLLIYYDDQRPSGVPDRFSGSQSGTSASLAISGLQSEDEADYYCATWDDSLGGYVFGSGTKVTVLG"
measurement_label = "koff"
recorded_measurement = "< 1e-06 s⁻¹"

[[record]]
binder = "IL17-G9-4 (antibody, V domains shown, converted into IgG) VH: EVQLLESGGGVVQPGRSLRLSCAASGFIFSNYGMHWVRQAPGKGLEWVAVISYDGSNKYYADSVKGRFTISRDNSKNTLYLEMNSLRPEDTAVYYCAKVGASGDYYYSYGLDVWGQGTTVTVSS VL: QSVLTQPPSASGTPGQTVSISCSGRQSNIGRHYVDWYQQVPGAAPKLLMYYDSIRPSGVPDRFSGSQSGTSASLAISGLQSEDEADYYCATWDDSLGGYVFGSGTKVTVLG"
measurement_label = "koff"
recorded_measurement = "1e-06 s⁻¹"


# input Entry under review: IL17-B6-15 (antibody, V domains shown) VH: EVQLVQSGAEVKKPGESLKISCKASGGSFSGYGTSWVRQAPGQGLEWMGGITHFFGAVDYAQKFQGRVTITADESTTTAYMELSGLTSDDTAVYYCARDPNEFWNGYYATHDFDYWGQGTTVTVSS VL: EIVLTQSPDFQSVTPKEKVTITCRASQNIGAELHWYQQKPDQSPKLLIKYASHSISGVPSRFSGSGSGTDFTLTINGLEAEDAGTYYCHQTDRLPYSFGPGTKVDIK . Reported koff?
# output 5.5e-05 s⁻¹

# input Entry under review: IL17-B6-17 (antibody, V domains shown) VH: EVQLVQSGAEVKKPGSSVKVSCKASGGSFGGYGIGWVRQAPGQGLEWMGGITPFFGFADYAQKFQGRVTITADESTTTAYMELSGLTSDDTAVYYCARDPNEFWNGYYSTHDFDSWGQGTTVTVSS VL: EIVLTQSPDFQSVTPKEKVTITCRASQDIGSELHWYQQKPDQPPKLLIKYASHSTSGVPSRFSGSGSGTDFTLTINGLEAEDAGTYYCHQTDSLPYTFGPGTKVDIK . Reported koff?
# output 1.05e-05 s⁻¹

# input Entry under review: IL17-B6-16 (antibody, V domains shown) VH: EVQLVQSGAEVKMPGSSLKISCKASGGSFRGYGISWVRQAPGQGLEWMGGITPFFGWADYAQKFQGRVTITADESTTTAYMELSGLTSDDTAVYYCARDPNEFWNGYYDTHHFDYWGQGTTVTVSS VL: EIVLTQSPDFQSVTPKEKVTITCRASQDIGSALHWYQQKPDQSPKLLIKYASHSVSGVPSRFSGSGSGTDFTLTINGLEAEDAGTYYCHQSDILPHTFGPGTKVDIK . Reported koff?
# output 4.48e-05 s⁻¹
